assay: viability of PTEN-null HCT116 cells – cell-based, HCT116 clonal line, CellTiter-Glo, pilot screen (AID 824); settings: HCT116 PTEN-deleted viability, 60 h, at 10 µM, stronger effect = lower value;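 further: 0% = 20 µM Hyamine control and 100% = vehicle cell control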
Records with an inconclusive call do not appear. Activity calls are given as the source filed them.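 How the source made its calls: active means viability at or below 27.92% in each of two runs, the all-compound median minus 4 SD; inconclusive means no clear call, values can overlap the other calls; inactive means the rest.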
Provide the reported viability of each item.

Input line: Give reported viability value for O=C1C(Cl)=C(NCC2CCCO2)C(=O)N1C1CCCCC1 (configuration not stated)
Output line: 90.2% (inactive)

Input line: Given the molecule "CCCCN1C(=O)c2ccc(C(=O)Nc3c(N)n(CCCC)c(=O)n(C)c3=O)cc2C1=O" , write its reported viability.
Output line: 88.2% (inactive)

Input line: Please report viability for the following molecule: "CCOc1cccc(NC(=O)c2ccc(S(=O)(=O)N(C)C)cc2)c1"
Output line: 92.4% (inactive)

Input line: # return recorded viability for entry "CCCCNC(=O)Nc1ccnn1C1CCCCC1"
Output line: 90.7% (inactive)

Input line: Annotate the molecule "CN(CCCNC(=O)c1cn(C)c2ccc(S(=O)(=O)N(C)C)cc2c1=O)c1ccccc1" with its measured viability.
Output line: 85% (inactive)

Input line: For the molecule "Cc1noc(/C=C/N(C)C)c1S(=O)(=O)N1CCc2ccccc21" , give its measured viability value.
Output line: 68.7% (inactive)

Input line: Find the measured viability of "Cc1ccc(-n2nnc3c(=O)n(CC(=O)OCc4ccccc4)cnc32)cc1" and report it.
Output line: 91.1% (inactive)

Input line: Tell me measured viability for "CC(=O)Nc1ccc(S(=O)(=O)N2CCN(CCC#N)CC2)cc1" please.
Output line: 97.1% (inactive)

Input line: Supply reported viability belonging to this molecule: "Cc1nnc(SCC(=O)Nc2ccc3c4c(cccc24)CC3)n1C"
Output line: 89.8% (inactive)

Input line: Using known records, supply viability for "Cc1ccccc1-c1nc(CN2CCC(C(=O)N3CCC(C(N)=O)CC3)CC2)c(C)o1"
Output line: 99.2% (inactive)

Input line: Identify measured viability corresponding to "O=S(=O)(c1ccc(F)cc1)N1CCC(N2CCCC2)CC1"
Output line: 95.9% (inactive)

Input line: Give reported viability value for "CCOc1ccc2[nH]c(C)cc(=O)c2c1"
Output line: 88.4% (inactive)

Input line: Entry CC(C)CC1NC2(C(=O)N(C)c3ccccc32)C2C(=O)N(C(C)C)C(=O)C12 (configuration not stated) needs its viability filled in; supply it.
Output line: 103% (inactive)

Input line: Supply measured viability of "COc1ccc(S(=O)(=O)N2CCN(c3ccc(C)cc3C)CC2)cc1OC" in your reply.
Output line: 72.2% (inactive)

Input line: State its viability for this molecule: "CN(C)CCCNC(=O)CCC1CCCCC1"
Output line: 107% (inactive)

Input line: Give recorded viability. "CCNc1ccc(C(=O)OCC)cc1NC(=O)c1cccc(N(C)C)c1"
Output line: 19.1% (active)

Input line: Indicate the recorded viability value for this molecule: "Cc1cc(=O)oc2c1ccc1oc(/C(=N/O)c3ccccc3)c(C)c12"
Output line: 65.4% (inactive)

Input line: Give reported viability value for "COc1ccc(S(=O)(=O)Nc2ccc(F)c(Cl)c2)cc1OC"
Output line: 87.6% (inactive)

Input line: Provide only the value of recorded viability for "NC(=O)C1(N2CCCCC2)CCN(C(=O)CCCn2c(=O)[nH]c3ccsc3c2=O)CC1"
Output line: 91.6% (inactive)

Input line: Entry O=C(Nc1ncc(Cc2ccccc2)s1)C1CCCO1 (configuration not stated) needs its viability filled in; supply it.
Output line: 103% (inactive)

Input line: For the molecule CCn1cc(C(=O)NCC2CCCO2)c2cc(OC)c(OC)cc2c1=O (configuration not stated) , give its reported viability.
Output line: 101% (inactive)

Input line: Provide only the value of recorded viability for CCCC(=O)NC(C)c1nc2ccccc2n1C(C)C (configuration not stated)
Output line: 91.2% (inactive)

Input line: Name the recorded viability of the item "Cc1ccc(C(=O)OCC(=O)Nc2ccc3c(c2)OCO3)o1" in your answer.
Output line: 99.3% (inactive)

Input line: State its viability: "CCCn1nc(NC(=O)CC(C)C)c2cc3ccccc3nc21"
Output line: 87.3% (inactive)

Input line: # return recorded viability for input "CCOC(=O)N1CCN(C(=O)CN(c2cc(Cl)ccc2OC)S(=O)(=O)c2ccccc2)CC1"
Output line: 84.1% (inactive)

Input line: Report viability, nothing else, for this molecule: O=C(NC1CCCc2ccccc21)c1cccnc1 (configuration not stated)
Output line: 93% (inactive)

Input line: Entry "Cc1cccc(-n2ncc3c(N4CCC5(CC4)OCCO5)ncnc32)c1" needs its viability filled in; supply it.
Output line: 59.5% (inactive)

Input line: Tell me viability reported for "Cc1nc(CCNC(=O)COc2ccccc2)cs1"
Output line: 96.5% (inactive)

Input line: Name the recorded viability of the item CCOC(=O)C1CCCN(C(=O)Cn2nc(CC)n3c(cc4sccc43)c2=O)C1 (configuration not stated) in your answer.
Output line: 105% (inactive)

Input line: For the molecule "CC(C)(O)C#Cc1ccc(C(=O)N2CCN(C(=O)c3ccco3)CC2)cc1" , report viability.
Output line: 99.8% (inactive)

Input line: Please report the measured viability for "CC(=O)Nc1ccc(S(=O)(=O)Nc2nc3ccccc3nc2Sc2nncn2C)cc1"
Output line: 98.1% (inactive)

Input line: Identify the reported viability for the following entry. "CCCOc1ccc(NC2=CC(=O)CC(C)(C)C2)cc1"
Output line: 94.2% (inactive)
